Below: a set of entries, each annotated with reported MIC.
System: CRE and CPE strains
Assay: MIC, broth microdilution, standard strains and Japanese clinical isolates (Example 5, Table 4 continued; organism of each KUB strain not given)
Type: cell-based
Settings: strain KUB3150, carbapenemase gene OXA-48; read-out: MIC
Provide the reading as a plain figure in µg/mL.

{"compound": "C[C@H]1[C@H](NC(=O)/C(=N\\OC(C)(C)C(=O)O)c2csc(N)n2)C(=O)N1S(=O)(=O)O [Aztreonam, aztreonam]", "value_units": "µg/mL", "MIC": 8}

Can you look up the measured MIC of CC(C)(O/N=C(\C(=O)N[C@@H]1C(=O)N2C(C(=O)[O-])=C(C[n+]3ccccc3)CS[C@H]12)c1csc(N)n1)C(=O)O [CAZ, ceftazidime] for me?
1

Quick one: MIC for C[C@@H](O)[C@H]1C(=O)N2C(C(=O)O)=C(SCCN=CN)C[C@H]12 [Imipenem, imipenem] ?
0.5

====

Test system: P. aeruginosa
Assay: MIC, broth microdilution, CDC/FDA Antibiotic Resistance Isolate Bank (Example 7, Tables 10, 15)
Assay type: cell-based
Settings: 96 strains of P. aeruginosa; β-lactamase inhibitor µg/mL in parentheses
// MIC against 96 strains of P. aeruginosa MIC50 lookup, one value per entry

Answered cases to consult:
{"smiles_notation": "CO/N=C(\\C(=O)N[C@@H]1C(=O)N2C(C(=O)[O-])=C(C[n+]3ccn4ncccc43)CS[C@H]12)c1nsc(N)n1", "assay_result": "32 µg(mL)"}
{"smiles_notation": "C[C@H]1[C@H](NC(=O)/C(=N\\OC(C)(C)C(=O)O)c2csc(N)n2)C(=O)N1S(=O)(=O)O", "assay_result": "16 µg(mL)"}
{"smiles_notation": "CN(C)c1cc(NC(=O)CNC(C)(C)C)c(O)c2c1C[C@H]1C[C@H]3[C@H](N(C)C)C(O)=C(C(N)=O)C(=O)[C@@]3(O)C(O)=C1C2=O", "assay_result": "4 µg(mL)"}

Entry "NCC[C@H](O)C(=O)N[C@@H]1C[C@H](N)[C@@H](O[C@H]2O[C@H](CN)[C@@H](O)[C@H](O)[C@H]2O)[C@H](O)[C@H]1O[C@H]1O[C@H](CO)[C@@H](O)[C@H](N)[C@H]1O" : reported MIC against 96 strains of P. aeruginosa MIC50 = ?
8 µg(mL)

Recorded MIC against 96 strains of P. aeruginosa MIC50 for "C[C@@H](O)[C@H]1C(=O)N2C(C(=O)O)=C(S[C@@H]3CN[C@H](C(=O)N(C)C)C3)[C@H](C)[C@H]12" , please?
16 µg(mL)

Query (compound): "C[C@H]1COc2c(N3CCN(C)CC3)c(F)cc3c(=O)c(C(=O)O)cn1c23" ; field requested: MIC against 96 strains of P. aeruginosa MIC50
32 µg(mL)

Field request: MIC against 96 strains of P. aeruginosa MIC50 | item: "O=C(O)c1cn(C2CC2)c2cc(N3CCNCC3)c(F)cc2c1=O"
16 µg(mL)

Form field: reported MIC against 96 strains of P. aeruginosa MIC50 of "CC(C)(O/N=C(\C(=O)N[C@@H]1C(=O)N2C(C(=O)[O-])=C(C[N+]3(CCNC(=O)c4ccc(O)c(O)c4Cl)CCCC3)CS[C@H]12)c1csc(N)n1)C(=O)O"
0.5 µg(mL)
